# TARGET_OR_SYSTEM: T1, human GIP receptor (human) (UniProt P48546)
# T1 sequence (looked up): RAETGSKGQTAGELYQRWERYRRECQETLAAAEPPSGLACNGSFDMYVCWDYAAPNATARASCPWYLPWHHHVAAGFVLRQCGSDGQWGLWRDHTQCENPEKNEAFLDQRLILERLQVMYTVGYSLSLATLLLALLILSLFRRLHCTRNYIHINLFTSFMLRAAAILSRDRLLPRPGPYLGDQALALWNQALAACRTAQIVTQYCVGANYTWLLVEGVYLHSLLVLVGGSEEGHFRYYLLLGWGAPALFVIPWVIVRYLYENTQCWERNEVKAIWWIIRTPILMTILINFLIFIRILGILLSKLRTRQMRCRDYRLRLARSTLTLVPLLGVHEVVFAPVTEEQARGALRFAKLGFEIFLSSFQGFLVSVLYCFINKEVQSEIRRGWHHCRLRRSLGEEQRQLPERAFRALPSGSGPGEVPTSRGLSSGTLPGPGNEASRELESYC
# TEST_PROTOCOL: cell-based or functional assay
Starred links: 1 amine or outer side, 2 acyl side, 3 side chain; linkers in the order of their positions; H or OH if unused. Non-standard residues stand in square brackets, D forms with d. Groups on a side chain read outwards from the residue. No end group written: not given here. *: point of attachment. C20 diacid = O=C(O)CCCCCCCCCCCCCCCCCCC(=O)*; αMePhe(2-F) = C[C@](N)(Cc1ccccc1F)C(=O)O; γGlu = O=C(O)[C@H](CCC(=O)[*:2])N[*:1]; αMeL = CC(C)C[C@](C)(N)C(=O)O; AEEA = NCCOCCOCC(=O)O; Aib = CC(C)(N)C(=O)O
PROPERTY: cAMP Rel EC50 (1% HSA)
Please don't drop the unit; write it after the number.

Examples with answers:
BINDER	cAMP Rel EC50 (1% HSA)
Y[Aib]QGTFTSDYSKLLDKK([AEEA-γGlu-C20 diacid])AQ[Aib]AFVQWLIEGGPSSGEPPPSEG-NH2 [Example 316]	102 nM
Y[Aib]QGT[αMePhe(2-F)]TSDYSILLDKQAAKEFIEYLIEGGPSSGAPPPSEG-NH2 (not fully specified (residue 20)) [Example 340]	60.4 nM

Task: What cAMP Rel EC50 (1% HSA) value was documented for this binder, Y[Aib]QGTFTSDYSI[αMeL]LDKQAAK([AEEA-AEEA-γGlu-C20 diacid])QFVEWLIA[Aib]GPSSGEPPPAEG-NH2 [Example 334] ?
Output: 72.1 nM

Task: What cAMP Rel EC50 (1% HSA) value was documented for this binder, Y[Aib]QGTFTSDYSK[αMeL]LDKKAQQAFIEYLLAGGPSSGEPPPSGE-NH2 (not fully specified (residue 17)) [Example 344] ?
Output: 70.7 nM

Task: What cAMP Rel EC50 (1% HSA) value was documented for this binder, YXQGTXTSDXXIXLDXQAQXEFIEXLIEGGPSSGAPPPSGGGE (not fully specified; synthetic construct; SITE 2: note = 2-Aminoisobutyric Acid; SITE 6: note = alpha-methyl-2-fluoro-L-phenylalanine; SITE 10: note = 3-(4-Pyridyl)-L-alanine; SITE 11: note = alpha-methyl-L-serine; SITE 13: note = alpha-methyl-leucine; SITE 16: note = L-ornithine; SITE 20: note = 3-(4-Pyridyl)-L-alanine) [Example 1234] ?
Output: 0.011 nM
